# PROTOCOL_NOTES: resazurin metabolic signal in A549 cells – cell-based, resazurin fluorescence, 24 h, PK04 Diversity Set, profiling panel (AID 1171); further: test concentration not given here
# TEST_CONDITIONS: A549 viability, higher = more signal, called active from +8 up or from −8 down
Flag rule - z-score less than 0.4 flags true; the remaining entries get false.

The examples below pair each entry with its known result.
COMPOUND: CC(=O)n1cc(C(O)C2C=CC3C(=O)NC(=O)C3N2Nc2ccccn2)c2ccccc21 (configuration not stated)
CLASS_ASSIGNMENT: true
--
COMPOUND: C=CCC(OC(C)=O)[C@@H]1[C@@H](N(Cc2cc3ccccc3o2)C(=O)Cc2ccc(OC)cc2)c2cc(OCCCO)ccc2N1C(=O)c1ccc2ccccc2c1 (some centres not stated)
CLASS_ASSIGNMENT: true
--
COMPOUND: O=C(CS)NCCCCCNC(=O)[C@H]1C[C@H]2C(=O)NCC(=O)N2[C@H]1c1cccc(OCCO)c1
CLASS_ASSIGNMENT: false
--
COMPOUND: C=C(CCCC)C(=O)CC[C@H](OC(=O)c1cccnc1)c1ccc(OCCO)cc1
CLASS_ASSIGNMENT: true
--
COMPOUND: COCC(=C=CC[C@H](O)c1cccc(OCCO)c1)C[C@H](O)c1cc(Cl)cc(Cl)c1O
CLASS_ASSIGNMENT: false
--
COMPOUND: O=C(O)[C@@]1(CCS(=O)(=O)c2ccccc2)N=C(c2ccc(OCCCO)cc2)O[C@H]1c1ccccc1
CLASS_ASSIGNMENT: false
--
COMPOUND: CO[C@H]1O[C@H](CO)[C@@H](OC(=O)Nc2ccc(Br)cc2)[C@@H]2OC(=O)[C@H](Cc3cccc(Br)c3)C/C=C/C[C@@H](Cc3cccc(Br)c3)C(=O)O[C@@H]12
CLASS_ASSIGNMENT: true
--
COMPOUND: COc1ccc([Si](C)(C)[C@@H]2[C@@H](CCO)O[C@]3(C(=O)N(Cc4cccc(N5CCOC5=O)c4)c4ccccc43)[C@H]2C)cc1
CLASS_ASSIGNMENT: true

Incoming: Is the reported z-score for C=CCC(OC(C)=O)[C@@H]1[C@@H](N(Cc2ccc(-c3cccc(C(F)(F)F)c3)o2)C(=O)Cc2ccc(OC)cc2)c2cc(OCCCO)ccc2N1C(=O)c1ccc2ccccc2c1 (some centres not stated) strictly below 0.4?
Outgoing: true

Incoming: # check: z-score < 0.4 for "CC(C)[C@@H](C(=O)O)n1cc(C2(O)CCCCC2)nn1"
Outgoing: true

Incoming: Quick check: z-score of CN1CCC(CCCO)=CC1c1cccs1 (configuration not stated) under 0.4?
Outgoing: true

Incoming: Hello, is z-score of the following compound strictly smaller than 0.4? "C=C(/C(=C/C[C@H](OC(C)=O)c1ccc(OCCO)cc1)c1cc(C(=O)OC)ccc1OC)C(C)C"
Outgoing: false

Incoming: Lab log: compare recorded z-score with 0.4; is it strictly lower for "NC(=O)[C@@H]1[C@H]2C(=O)O[C@H](c3ccccc3)[C@H](c3ccccc3)N2[C@H](c2ccc(OCCO)cc2)[C@@]12C(=O)Nc1ccc(C#CC3=CCCCC3)cc12" ?
Outgoing: true

---

# PROTOCOL_NOTES: calcein-AM signal in unstimulated myeloma cells – cell-based, calcein-AM fluorescence, 48 h, PK04 Diversity Set, profiling panel (AID 1166);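 further: cells grown under basal conditions without added stimulus; test concentration not given here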
# TEST_CONDITIONS: RPMI8226 myeloma viability, higher = more signal
Rule: z-score below -1 gives t. Equal to or above -1 gives f.

Examples with answers:
COMPOUND: CCCCCCCCCCC(O)C1C=CC2C(=O)NC(=O)C2N1Nc1ccc(Cl)cc1Cl (configuration not stated)
CLASS_ASSIGNMENT: t

COMPOUND: COC(=O)c1c(CC[C@@H](CO)NC(=O)N[C@H](Cc2ccccc2)Cn2cc(-c3ccccn3)nn2)oc(C(C)=O)c1C(=O)OC
CLASS_ASSIGNMENT: f

COMPOUND: CC(C)[C@@H](C(=O)O)n1cc(C2(O)CCCCC2)nn1
CLASS_ASSIGNMENT: f

COMPOUND: CC(CO)N1C(=O)[C@@H]2C3C(=O)OCCC/C=C\[C@H]3OC23C=CCN(CCN2CCOCC2)C(=O)[C@@H]13 (some centres not stated)
CLASS_ASSIGNMENT: f

COMPOUND: O=C(O)[C@@]1(CCS(=O)(=O)c2ccccc2)N=C(c2ccc(OCCCO)cc2)O[C@H]1c1ccccc1
CLASS_ASSIGNMENT: t

COMPOUND: COc1ccc(C(O)C2C=CC3C(=O)N(C)C(=O)C3N2N(c2ccccc2)c2ccccc2)c2ccccc12 (configuration not stated)
CLASS_ASSIGNMENT: f

Please turn your attention to the following entry.
Incoming: Regarding "C#CCN(C/C=C/c1ccccc1)[C@H](CO)c1ccccc1" , kindly confirm whether its z-score is beneath -1.
Outgoing: t
